# key: entry, value: inhibition
- STUDY_TARGET: Dual specificity protein kinase CLK3 (Homo sapiens)
- CONDITION_NOTES: at 0.1 µM
- Description: GSK_PKIS: CLK3 mean inhibition at 0.1 uM [Nanosyn]
Field note: include the unit after the figure.

COc1cc(Nc2nccc(Nc3ccc4c(C)n[nH]c4c3)n2)cc(OC)c1OC	0.25%
Cc1ccc(O)cc1Nc1ccnc2cc(-c3ccccn3)ccc12	2.09%
Clc1ccc(-c2nn3ncccc3c2-c2ccnc(Nc3ccccc3)n2)cc1	1.63%
O=C(Nc1n[nH]c2cc(-c3ccc(F)cc3)ccc12)C1CC1	1.11%
c1ccc(COc2ccc(Nc3ncnc4ccc(-c5ccco5)cc34)cc2)cc1	-0.79%
CC1=C(C(=O)Nc2cc(Cl)c3[nH]ncc3c2)C(c2ccc(C(F)(F)F)cc2)CC(=O)N1 (centres undefined)	1.15%
COc1ccc(-c2nn3ncccc3c2-c2ccnc(Nc3ccc4c(c3)OCCO4)n2)cc1	-0.22%
O=S(=O)(CCNCc1ccc(-c2ccc3ncnc(Nc4ccc(OCc5cccc(F)c5)c(Cl)c4)c3c2)o1)c1ccccc1	0.95%
N#Cc1c(NC(=O)c2ccc(F)cc2)sc2c1CCCC2	0.44%
CCn1c(-c2nonc2N)nc2c(C#CC(C)(C)O)nc(OC[C@H](N)c3ccccc3)cc21	1.29%

Q: Record request: inhibition value, item CCCN1CCC(c2ccc(Nc3nc(Nc4cc(F)ccc4C(N)=O)c4cc[nH]c4n3)c(OC)c2)CC1
A: 3.2%

Q: Record request: inhibition value, item [O-][S+]1CCN(Cc2ccc(-c3ccc4ncnc(Nc5ccc(OCc6cccc(F)c6)c(Cl)c5)c4c3)o2)CC1
A: 1.18%

Q: Record request: inhibition value, item CCOc1ccc2c(-c3ccnc(Nc4cccc(C(F)(F)F)c4)n3)cnn2n1
A: 0.68%

Q: Record request: inhibition value, item c1ccc(-c2nc3n(c2-c2ccc4c(c2)OCO4)CCC3)nc1
A: 3.62%

Q: Record request: inhibition value, item NS(=O)(=O)c1ccc(N/N=C2\C(=O)Nc3ccc4ncccc4c32)cc1
A: 2.36%

Q: Record request: inhibition value, item COc1cccc(-n2ncc3c(N/N=C/c4ccc(F)cc4)ncnc32)c1
A: 3.03%

Q: Record request: inhibition value, item COc1cc(N2CCN(C(C)C)CC2)ccc1Nc1nc(Nc2ccc(F)cc2C(N)=O)c2cc[nH]c2n1
A: 1.64%

Q: Record request: inhibition value, item Fc1ccc(-c2nn3ccccc3c2-c2ccncc2)cc1
A: 0.63%

Q: Record request: inhibition value, item NS(=O)(=O)c1ccc(Nc2ncc(-c3ccccc3)o2)cc1
A: 2.28%

Q: Record request: inhibition value, item O=C(O[C@H]1CN[C@H](C#Cc2cc3ncnc(Nc4ccc(Cc5ccccc5)cc4)c3s2)C1)N1CCOCC1
A: 0.27%

Q: Record request: inhibition value, item COc1ccc(-c2cc(-c3c[nH]nc3-c3ccccn3)ccn2)cc1
A: 3.07%

Q: Record request: inhibition value, item CN1CCC(n2cnc(-c3ccc(F)cc3)c2-c2ccnc(N)n2)CC1
A: 0.99%

Q: Record request: inhibition value, item COC(=O)Nc1nc2ccc(S(=O)(=O)c3ccc(NC(=O)Nc4cc(C(F)(F)F)ccc4F)cc3)cc2[nH]1
A: 0.87%

Q: Record request: inhibition value, item CS(=O)(=O)CCNCc1coc(-c2ccc3ncnc(Nc4ccc(OCc5ccccc5)cc4)c3c2)c1
A: -0.2%

Q: Record request: inhibition value, item COc1ccc(-c2oc3ncnc(N)c3c2-c2ccc(NC(=O)Nc3cc(C(F)(F)F)ccc3F)cc2)cc1
A: 1.97%

Q: Record request: inhibition value, item NC(=O)c1sc(-n2cnc3ccc(C(F)(F)F)cc32)cc1OCc1ccccc1Br
A: 2.31%

Q: Record request: inhibition value, item CCNC(=O)O[C@H]1CN[C@H](C#Cc2cc3ncnc(Nc4ccc(OCc5cccc(F)c5)c(Cl)c4)c3s2)C1
A: 0.76%

Q: Record request: inhibition value, item Fc1ccc(-c2nn3ncccc3c2-c2ccnc(Nc3ccc4c(c3)OCCO4)n2)cc1
A: 1.15%

Q: Record request: inhibition value, item CCc1nn2ncccc2c1-c1ccnc(NC2CC2)n1
A: 0.31%

###

- Test system: Proto-oncogene tyrosine-protein kinase receptor Ret (Homo sapiens), P07949 [Y791F]
- Sequence (P07949 whole entry Y791F): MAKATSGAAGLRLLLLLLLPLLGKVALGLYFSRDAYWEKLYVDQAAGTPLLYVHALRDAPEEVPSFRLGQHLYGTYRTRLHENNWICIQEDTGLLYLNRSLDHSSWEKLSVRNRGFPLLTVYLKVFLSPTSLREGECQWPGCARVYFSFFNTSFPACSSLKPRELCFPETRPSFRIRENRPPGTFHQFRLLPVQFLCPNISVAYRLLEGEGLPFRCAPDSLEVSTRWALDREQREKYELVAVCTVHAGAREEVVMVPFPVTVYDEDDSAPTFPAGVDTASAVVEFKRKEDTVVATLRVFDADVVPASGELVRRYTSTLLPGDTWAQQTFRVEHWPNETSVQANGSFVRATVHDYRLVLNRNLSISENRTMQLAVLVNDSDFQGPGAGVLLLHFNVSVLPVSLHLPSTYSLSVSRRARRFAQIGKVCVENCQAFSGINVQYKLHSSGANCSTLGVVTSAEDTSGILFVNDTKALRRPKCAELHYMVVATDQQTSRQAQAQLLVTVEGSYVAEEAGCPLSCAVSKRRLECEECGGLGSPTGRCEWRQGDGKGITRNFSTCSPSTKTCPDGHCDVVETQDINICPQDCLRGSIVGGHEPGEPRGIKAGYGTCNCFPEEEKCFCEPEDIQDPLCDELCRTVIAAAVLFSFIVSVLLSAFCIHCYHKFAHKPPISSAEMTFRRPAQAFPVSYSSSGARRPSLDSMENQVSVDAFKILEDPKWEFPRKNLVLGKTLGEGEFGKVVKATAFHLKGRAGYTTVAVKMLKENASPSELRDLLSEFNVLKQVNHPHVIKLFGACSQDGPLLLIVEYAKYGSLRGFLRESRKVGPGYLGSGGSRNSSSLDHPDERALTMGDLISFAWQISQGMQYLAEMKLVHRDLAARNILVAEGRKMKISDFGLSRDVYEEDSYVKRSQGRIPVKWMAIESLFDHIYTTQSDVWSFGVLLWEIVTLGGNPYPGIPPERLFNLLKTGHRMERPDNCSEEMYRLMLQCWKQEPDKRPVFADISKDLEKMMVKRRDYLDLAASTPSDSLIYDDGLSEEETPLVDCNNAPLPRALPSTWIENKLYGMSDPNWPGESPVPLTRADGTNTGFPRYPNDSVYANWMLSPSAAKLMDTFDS
- CONDITION_NOTES: at 1 µM
Rule: YES for inhibition not less than 10%, NO for anything less.

Q: Textbook exercise: given the entry N#Cc1c(NC(=O)c2ccc(F)cc2)sc2c1CCCC2 , state whether its inhibition is greater than or equal to 10%.
A: NO

Q: Textbook exercise: given the entry FC(F)(F)c1cccc(-c2nn3ncccc3c2-c2ccnc(Nc3ccc4c(c3)OCCO4)n2)c1 , state whether its inhibition is greater than or equal to 10%.
A: YES

Q: Textbook exercise: given the entry CCn1c(-c2nonc2N)nc2c(C#CC(C)(C)O)ncc(OC3CCNCC3)c21 , state whether its inhibition is greater than or equal to 10%.
A: YES

Q: Textbook exercise: given the entry CNC(=O)c1cncc(/C=C/c2ccccc2Cl)c1 , state whether its inhibition is greater than or equal to 10%.
A: YES

Q: Textbook exercise: given the entry COc1cccc(-c2c[nH]c3c(N/N=C/c4ccncc4)ncnc23)c1 , state whether its inhibition is greater than or equal to 10%.
A: YES

###

# key: entry, value: inhibition
- STUDY_TARGET: Epidermal growth factor receptor (Homo sapiens)
- CONDITION_NOTES: at 0.1 µM
- Description: GSK_PKIS: EGFR mean inhibition at 0.1 uM [Nanosyn]

CNC(=O)c1cncc(/C=C/c2ccccc2Cl)c1	2.35%

Continue with the next compound.
Q: Record request: inhibition value, item COc1cc2ncn(-c3cc(OCc4ccccc4C(F)(F)F)c(C(=O)N(C)C)s3)c2cc1OC
A: 0.21%

###

- Tested on: Serine/threonine-protein kinase B-raf (Homo sapiens), P15056 [V600E];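 also: mean inhibition of the BRAF V599E mutant, from GSK PKIS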
- Sequence (P15056 whole entry V600E): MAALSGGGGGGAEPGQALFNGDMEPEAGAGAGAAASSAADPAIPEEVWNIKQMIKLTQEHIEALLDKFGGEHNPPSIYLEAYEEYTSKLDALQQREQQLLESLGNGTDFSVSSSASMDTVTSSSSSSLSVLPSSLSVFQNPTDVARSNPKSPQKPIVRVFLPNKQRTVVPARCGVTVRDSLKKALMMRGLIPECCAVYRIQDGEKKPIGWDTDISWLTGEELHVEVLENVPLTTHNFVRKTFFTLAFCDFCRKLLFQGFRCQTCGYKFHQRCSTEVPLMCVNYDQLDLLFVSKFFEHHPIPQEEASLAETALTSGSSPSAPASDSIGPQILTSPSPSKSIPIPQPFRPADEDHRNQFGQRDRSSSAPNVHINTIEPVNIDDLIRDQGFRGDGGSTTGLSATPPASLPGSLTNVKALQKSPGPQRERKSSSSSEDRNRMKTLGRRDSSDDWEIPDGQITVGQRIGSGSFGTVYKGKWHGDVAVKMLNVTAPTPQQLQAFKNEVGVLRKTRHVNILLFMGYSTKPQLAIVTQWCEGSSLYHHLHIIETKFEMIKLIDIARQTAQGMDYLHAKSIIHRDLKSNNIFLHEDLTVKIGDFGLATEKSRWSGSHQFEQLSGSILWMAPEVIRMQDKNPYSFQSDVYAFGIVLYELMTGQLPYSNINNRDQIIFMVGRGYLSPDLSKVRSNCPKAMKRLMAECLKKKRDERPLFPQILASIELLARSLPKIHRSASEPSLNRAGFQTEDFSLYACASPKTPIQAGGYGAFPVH
- CONDITION_NOTES: at 0.1 µM
- Description: GSK_PKIS: BRAF (V599E mutant) mean inhibition at 0.1 uM [Nanosyn]
In this scheme, each record receives a class according to its inhibition; the ranges are category 1 = under 3%, category 2 = from 3% up to 4%, category 3 = 4% and over

Q: Could you place CCn1c(-c2nonc2N)nc2c(C#CC(C)(C)O)nc(OC[C@H](N)c3ccccc3)cc21 in its proper category? Many thanks.
A: category 1

Q: Could you place CCc1nn2ncccc2c1-c1ccnc(NC2CC2)n1 in its proper category? Many thanks.
A: category 2

Q: Could you place O=C(Nc1n[nH]c2cc(-c3ccc(F)cc3)ccc12)C1CC1 in its proper category? Many thanks.
A: category 3

Q: Could you place COc1cc(Nc2nccc(Nc3ccc4c(C)n[nH]c4c3)n2)cc(OC)c1OC in its proper category? Many thanks.
A: category 1

Q: Could you place CCCN1CCC(c2ccc(Nc3nc(Nc4cc(F)ccc4C(N)=O)c4cc[nH]c4n3)c(OC)c2)CC1 in its proper category? Many thanks.
A: category 3

Q: Could you place CN1CCC(n2cnc(-c3ccc(F)cc3)c2-c2ccnc(Nc3ccccc3)n2)CC1 in its proper category? Many thanks.
A: category 2

Q: Could you place Clc1ccc(-c2nn3ncccc3c2-c2ccnc(Nc3ccccc3)n2)cc1 in its proper category? Many thanks.
A: category 1

Q: Could you place Nc1nc(-c2ccc(F)cc2)c(-c2ccc3ncccc3n2)s1 in its proper category? Many thanks.
A: category 3

Q: Could you place Nc1ncc(-c2cccc(S(N)(=O)=O)c2)c2scc(-c3ccc(F)c(Cl)c3)c12 in its proper category? Many thanks.
A: category 3

###

- STUDY_TARGET: Dual specificity protein kinase TTK (Homo sapiens) (UniProt P33981);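 also: reported figures are mean TTK inhibition at 1 µM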
- Sequence (P33981 whole entry): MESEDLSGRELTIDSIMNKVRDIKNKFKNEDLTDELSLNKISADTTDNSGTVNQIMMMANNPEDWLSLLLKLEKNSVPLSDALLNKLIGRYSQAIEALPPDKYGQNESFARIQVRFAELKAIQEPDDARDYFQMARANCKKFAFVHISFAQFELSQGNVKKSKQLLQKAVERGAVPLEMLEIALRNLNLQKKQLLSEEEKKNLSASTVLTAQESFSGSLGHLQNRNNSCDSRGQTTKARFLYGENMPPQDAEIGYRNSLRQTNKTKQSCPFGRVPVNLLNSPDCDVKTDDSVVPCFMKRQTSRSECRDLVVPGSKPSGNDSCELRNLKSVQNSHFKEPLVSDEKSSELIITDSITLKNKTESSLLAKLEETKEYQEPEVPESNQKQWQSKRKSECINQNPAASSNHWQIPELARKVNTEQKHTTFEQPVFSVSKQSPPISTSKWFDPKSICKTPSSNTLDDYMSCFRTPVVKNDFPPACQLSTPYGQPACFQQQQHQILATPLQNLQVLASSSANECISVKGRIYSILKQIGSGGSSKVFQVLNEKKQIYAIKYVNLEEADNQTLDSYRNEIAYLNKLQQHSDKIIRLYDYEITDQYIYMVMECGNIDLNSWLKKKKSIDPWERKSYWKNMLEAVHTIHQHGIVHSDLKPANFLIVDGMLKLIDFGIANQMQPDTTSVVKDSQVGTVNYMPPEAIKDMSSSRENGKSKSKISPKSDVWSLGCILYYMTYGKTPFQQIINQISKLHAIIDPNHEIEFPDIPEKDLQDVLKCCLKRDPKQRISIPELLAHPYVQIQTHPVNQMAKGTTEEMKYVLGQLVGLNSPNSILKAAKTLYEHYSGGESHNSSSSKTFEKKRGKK
- CONDITION_NOTES: at 1 µM
# key: entry, value: inhibition
Express the result in % but write the number alone.

Recorded results for 4 molecules are shown here.
CC(=O)Nc1cccc(C#Cc2cncnc2Nc2ccc(OCc3cccc(F)c3)c(Cl)c2)c1	7.9
CCN(CC)S(=O)(=O)c1ccc(OC)c(Nc2ncc(-c3ccccc3)o2)c1	8.57
N#Cc1c(NC(=O)CN2CCOCC2)sc2c1CCCC2	12.8
Fc1ccc(-c2cc(-c3c[nH]nc3-c3ccccn3)ccn2)cc1	9.65

Continue with the next molecule.
Q: Record request: inhibition value, item CNC(=O)c1cccc(C#Cc2cncnc2Nc2ccc(OCc3cccc(F)c3)c(Cl)c2)c1
A: 9.1

###

- STUDY_TARGET: Death-associated protein kinase 1 (Homo sapiens) (UniProt P53355);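 also: each value is a mean inhibition figure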
- Sequence (P53355 whole entry, looked up): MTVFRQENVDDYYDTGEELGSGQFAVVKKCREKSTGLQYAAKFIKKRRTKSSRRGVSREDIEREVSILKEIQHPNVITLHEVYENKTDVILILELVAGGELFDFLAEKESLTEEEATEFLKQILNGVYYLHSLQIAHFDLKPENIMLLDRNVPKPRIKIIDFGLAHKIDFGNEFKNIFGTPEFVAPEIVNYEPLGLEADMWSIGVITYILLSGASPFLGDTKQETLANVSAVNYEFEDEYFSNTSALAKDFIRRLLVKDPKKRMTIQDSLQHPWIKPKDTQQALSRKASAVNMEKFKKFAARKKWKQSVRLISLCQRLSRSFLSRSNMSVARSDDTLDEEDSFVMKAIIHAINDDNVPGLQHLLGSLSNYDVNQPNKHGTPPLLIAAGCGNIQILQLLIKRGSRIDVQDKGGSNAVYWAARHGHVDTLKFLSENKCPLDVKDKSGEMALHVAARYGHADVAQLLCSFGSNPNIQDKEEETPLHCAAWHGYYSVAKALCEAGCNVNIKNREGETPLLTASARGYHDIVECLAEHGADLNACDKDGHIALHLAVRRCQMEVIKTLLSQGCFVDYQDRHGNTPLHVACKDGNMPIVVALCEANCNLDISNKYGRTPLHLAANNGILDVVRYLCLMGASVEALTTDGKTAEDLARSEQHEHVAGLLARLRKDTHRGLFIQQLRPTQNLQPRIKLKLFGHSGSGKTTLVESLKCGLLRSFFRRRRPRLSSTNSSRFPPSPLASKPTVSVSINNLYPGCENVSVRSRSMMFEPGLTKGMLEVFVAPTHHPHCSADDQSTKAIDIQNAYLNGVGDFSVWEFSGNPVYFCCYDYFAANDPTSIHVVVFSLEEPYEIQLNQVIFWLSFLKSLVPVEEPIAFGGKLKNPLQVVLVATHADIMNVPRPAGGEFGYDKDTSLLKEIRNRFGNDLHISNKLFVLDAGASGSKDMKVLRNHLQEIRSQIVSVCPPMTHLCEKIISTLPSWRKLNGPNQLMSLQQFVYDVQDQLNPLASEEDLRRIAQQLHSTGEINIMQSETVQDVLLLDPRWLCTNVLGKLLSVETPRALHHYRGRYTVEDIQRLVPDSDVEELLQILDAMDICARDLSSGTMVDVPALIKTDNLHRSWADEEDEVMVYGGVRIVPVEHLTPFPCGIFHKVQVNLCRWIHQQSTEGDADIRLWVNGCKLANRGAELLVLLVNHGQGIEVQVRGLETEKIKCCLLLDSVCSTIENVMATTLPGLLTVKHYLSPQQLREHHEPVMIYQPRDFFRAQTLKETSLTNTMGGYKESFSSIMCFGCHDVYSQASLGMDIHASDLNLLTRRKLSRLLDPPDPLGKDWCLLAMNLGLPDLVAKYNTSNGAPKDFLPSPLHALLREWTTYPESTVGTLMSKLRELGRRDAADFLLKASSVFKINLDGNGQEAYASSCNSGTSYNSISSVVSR
- CONDITION_NOTES: at 1 µM
# key: entry, value: inhibition
Express the result in % but write the number alone.

Recorded results for 3 compounds are shown here.
COc1ccc(-c2nn3ncccc3c2-c2ccnc(Nc3ccc4c(c3)OCCO4)n2)cc1	2.06
CCc1nn2ncccc2c1-c1ccnc(NC2CC2)n1	1.38
FC(F)(F)c1cccc(-c2nn3ncccc3c2-c2ccnc(Nc3ccc4c(c3)OCCO4)n2)c1	4.46

Q: Record request: inhibition value, item CCn1c(-c2nonc2N)nc2c(C#CC(C)(C)O)ncc(OC3CCNCC3)c21
A: 5.68

###

- STUDY_TARGET: Tyrosine-protein kinase ZAP-70 (Homo sapiens) (UniProt P43403)
- Sequence (P43403 whole entry): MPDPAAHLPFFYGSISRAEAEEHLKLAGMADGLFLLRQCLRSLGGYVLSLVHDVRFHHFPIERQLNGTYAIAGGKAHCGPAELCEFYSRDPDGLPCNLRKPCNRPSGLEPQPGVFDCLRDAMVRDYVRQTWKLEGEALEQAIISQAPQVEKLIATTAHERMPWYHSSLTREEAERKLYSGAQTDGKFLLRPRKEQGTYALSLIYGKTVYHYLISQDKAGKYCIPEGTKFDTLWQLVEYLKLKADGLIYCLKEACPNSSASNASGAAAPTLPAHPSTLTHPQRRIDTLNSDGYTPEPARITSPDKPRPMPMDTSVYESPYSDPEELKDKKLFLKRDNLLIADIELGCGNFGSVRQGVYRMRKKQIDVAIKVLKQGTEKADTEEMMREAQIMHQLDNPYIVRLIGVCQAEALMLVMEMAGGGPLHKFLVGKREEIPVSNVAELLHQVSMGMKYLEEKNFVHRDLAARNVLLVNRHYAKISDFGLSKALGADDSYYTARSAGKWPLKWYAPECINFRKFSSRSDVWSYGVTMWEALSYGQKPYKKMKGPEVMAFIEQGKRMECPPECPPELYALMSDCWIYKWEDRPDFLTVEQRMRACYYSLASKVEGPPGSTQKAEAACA
- CONDITION_NOTES: at 1 µM
- Description: GSK_PKIS: ZAP70 mean inhibition at 1 uM [Nanosyn]
# key: entry, value: inhibition
Express the result in % but write the number alone.

Recorded results for 5 compounds are shown here.
CCn1c(-c2nonc2N)nc2c(C#CC(C)(C)O)nc(OC[C@H](N)c3ccccc3)cc21	-2.5
NC(=O)c1sc(-n2cnc3ccc(C(F)(F)F)cc32)cc1OCc1ccccc1Br	2.31
Fc1ccc(-c2nn3ncccc3c2-c2ccnc(Nc3ccc4c(c3)OCCO4)n2)cc1	3.06
COc1cc(N2CCN(C(C)C)CC2)ccc1Nc1nc(Nc2ccc(F)cc2C(N)=O)c2cc[nH]c2n1	23.5
Cc1cccc(Nc2ncc(-c3ccccc3)o2)c1	1.24

Q: Record request: inhibition value, item CCn1cc(-c2ccnc3[nH]ccc23)c(-c2cccc(NC(=O)Nc3ccc(OCc4ccccc4)cc3)c2)n1
A: 2.51

Q: Record request: inhibition value, item [O-][S+]1CCN(Cc2ccc(-c3ccc4ncnc(Nc5ccc(OCc6cccc(F)c6)c(Cl)c5)c4c3)o2)CC1
A: 3.57

Q: Record request: inhibition value, item Nc1ncc(-c2cccc(S(N)(=O)=O)c2)c2scc(-c3ccc(F)c(Cl)c3)c12
A: 2.18

Q: Record request: inhibition value, item COc1cc(Nc2nccc(Nc3ccc4c(C)n[nH]c4c3)n2)cc(OC)c1OC
A: 32.7
